- test target: human TAS1R2-WT/TAS1R3-L823F (Homo sapiens, UniProt Q7RTX0+Q8TE23, L823F)
- Construct: expressed in transfected cells; host or cells: HEK293T stably expressing Gα16gust44
- Sequence (Q8TE23 20-839): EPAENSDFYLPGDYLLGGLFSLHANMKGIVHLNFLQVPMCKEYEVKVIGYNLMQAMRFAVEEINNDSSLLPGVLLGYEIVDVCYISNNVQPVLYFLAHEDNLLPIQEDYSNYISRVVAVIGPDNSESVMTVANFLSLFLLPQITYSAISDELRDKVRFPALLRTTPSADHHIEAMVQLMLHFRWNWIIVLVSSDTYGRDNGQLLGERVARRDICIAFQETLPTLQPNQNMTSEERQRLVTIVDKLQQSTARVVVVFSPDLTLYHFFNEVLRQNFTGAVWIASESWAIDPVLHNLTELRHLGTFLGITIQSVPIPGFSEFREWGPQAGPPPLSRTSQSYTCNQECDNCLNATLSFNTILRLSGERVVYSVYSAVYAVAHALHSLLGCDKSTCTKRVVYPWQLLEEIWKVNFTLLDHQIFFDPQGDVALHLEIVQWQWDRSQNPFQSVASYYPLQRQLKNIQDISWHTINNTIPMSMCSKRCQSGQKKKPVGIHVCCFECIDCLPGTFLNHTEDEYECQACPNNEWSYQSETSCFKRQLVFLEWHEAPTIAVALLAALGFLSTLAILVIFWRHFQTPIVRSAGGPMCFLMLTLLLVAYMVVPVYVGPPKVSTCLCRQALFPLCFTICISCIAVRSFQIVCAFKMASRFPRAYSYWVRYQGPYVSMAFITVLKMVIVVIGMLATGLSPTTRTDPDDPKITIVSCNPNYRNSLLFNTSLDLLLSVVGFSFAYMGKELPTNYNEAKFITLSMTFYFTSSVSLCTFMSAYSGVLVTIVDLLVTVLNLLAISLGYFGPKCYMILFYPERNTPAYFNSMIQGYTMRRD
- Sequence (Q7RTX0 21-852 L823F): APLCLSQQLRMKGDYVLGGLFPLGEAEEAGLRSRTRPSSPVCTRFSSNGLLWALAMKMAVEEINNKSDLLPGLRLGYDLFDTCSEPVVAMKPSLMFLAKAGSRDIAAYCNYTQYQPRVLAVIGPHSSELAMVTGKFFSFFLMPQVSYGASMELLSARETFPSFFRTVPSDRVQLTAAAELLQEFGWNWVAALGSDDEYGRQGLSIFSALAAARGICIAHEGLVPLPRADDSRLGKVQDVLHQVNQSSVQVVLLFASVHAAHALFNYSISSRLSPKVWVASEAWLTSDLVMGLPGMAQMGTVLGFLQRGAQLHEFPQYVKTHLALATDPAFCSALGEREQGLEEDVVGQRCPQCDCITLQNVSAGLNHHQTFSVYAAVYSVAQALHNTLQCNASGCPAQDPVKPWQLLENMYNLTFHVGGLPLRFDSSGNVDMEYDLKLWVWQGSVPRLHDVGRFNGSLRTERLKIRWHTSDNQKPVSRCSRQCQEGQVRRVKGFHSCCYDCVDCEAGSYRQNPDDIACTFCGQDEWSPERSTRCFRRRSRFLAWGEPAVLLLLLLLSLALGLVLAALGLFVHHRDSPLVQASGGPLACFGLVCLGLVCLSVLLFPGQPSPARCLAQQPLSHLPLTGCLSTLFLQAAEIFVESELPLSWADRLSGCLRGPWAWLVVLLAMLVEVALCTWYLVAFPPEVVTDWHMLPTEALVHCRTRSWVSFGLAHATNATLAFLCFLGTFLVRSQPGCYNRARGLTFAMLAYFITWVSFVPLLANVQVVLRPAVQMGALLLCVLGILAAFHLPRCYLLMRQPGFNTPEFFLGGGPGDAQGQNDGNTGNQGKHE
- procedure summary: Calcium mobilisation assay, TAS1R2-WT with TAS1R3 variant L823F
- Assay type: cell-based
I'd appreciate it if you could supply R1 = Variant EC50/WT EC50 values for the items below.
The reply should be a number, written without any unit.

// lookup R1 = Variant EC50/WT EC50 for CC1=CC(=O)NS(=O)(=O)O1
0.6

Item: COc1ccc(CCC(=O)c2c(O)cc(O[C@@H]3O[C@H](CO)[C@@H](O)[C@H](O)[C@H]3O[C@@H]3O[C@@H](C)[C@H](O)[C@@H](O)[C@H]3O)cc2O)cc1O [NHDC, neohesperidin dihydrochalcone]
0.9

Item: OC[C@H]1O[C@H](O[C@]2(CCl)O[C@H](CCl)[C@@H](O)[C@@H]2O)[C@H](O)[C@@H](O)[C@H]1Cl
1.2

Item: C[C@H](CC[C@@H](O[C@@H]1O[C@H](CO[C@@H]2O[C@H](CO)[C@@H](O)[C@H](O)[C@H]2O)[C@@H](O)[C@H](O)[C@H]1O[C@@H]1O[C@H](CO)[C@@H](O)[C@H](O)[C@H]1O)C(C)(C)O)[C@H]1CC[C@@]2(C)[C@@H]3CC=C4[C@@H](CC[C@H](O[C@@H]5O[C@H](CO[C@@H]6O[C@H](CO)[C@@H](O)[C@H](O)[C@H]6O)[C@@H](O)[C@H](O)[C@H]5O)C4(C)C)[C@]3(C)[C@H](O)C[C@]12C [Mogroside V, mogroside V]
0.7
